- System under test: Cyclin-dependent kinase 1/cyclin B (Homo sapiens)
- Method: Inhibitory concentration was determined by measuring phosphorylation of H1 histone using active human Cell division cycle 2-cyclin B complex
- Type: protein-complex assay
Residues, ends and D or L forms follow the SMILES beside them. *: point of attachment. X3 = CN(C)CCCn1cc(C2=C(c3cn(CCOCC*)c4ccccc34)C(=O)NC2=O)c2ccccc21
compounds and their reported IC50

# Compound, IC50
records = [
    ("CNC(=O)[C@H](CCCCN)NC(=O)[C@H](CCCCN)NC(=O)[C@@H]1CCCN1C(=O)[C@H](CSCCOCCOCCn1cc(C2=C(c3cn(CCCN(C)C)c4ccccc34)C(=O)NC2=O)c2ccccc21)NC(C)=O", "> 1000 µM"),
    ("CNC(=O)[C@H](CCCCN)NC(=O)[C@H](CCCCN)NC(=O)[C@@H]1CCCN1C(=O)[C@H](CS)NC(C)=O (HELM PEPTIDE1{[ac].C.P.K.K.[CN[*:1]]}$$$$V2.0)", "> 1000 µM"),
    ("CNC(=O)[C@H](CCCCN)NC(=O)[C@H](CCCCN)NC(=O)[C@@H]1CCCN1C(=O)[C@H](CSCCOCCn1cc(C2=C(c3cn(CCCN(C)C)c4ccccc34)C(=O)NC2=O)c2ccccc21)NC(C)=O (Ac-C(X3)PKK-NHMe)", "> 1000 µM"),
]
